# Tested on: Saccharomyces cerevisiae
# Test: protein stability index of tFT-peptide fusion (C-terminal peptide) (PSI (0-1 scale)); higher = more stable (slower turnover)
# Condition: genetic background: wild type; temperature: 30 C
Measured endpoint: protein stability index
Number only, please.

Observe how each entry below is paired with its result.
{"Sequence data": "NALFGWMRGCLS", "Target": "Saccharomyces cerevisiae", "Measured endpoint": "protein stability index", "Assay value": 0.724}
{"Sequence data": "SPPLPKFPPAIP", "Target": "Saccharomyces cerevisiae", "Measured endpoint": "protein stability index", "Assay value": 0.689}
{"Sequence data": "WGQSMFSLLVSI", "Target": "Saccharomyces cerevisiae", "Measured endpoint": "protein stability index", "Assay value": 0.542}

Kindly note the recorded protein stability index for LTASRLAGSGGE , which is 0.69

Query SLVVPVSAAQYV yields protein stability index of 0.653

The reported value for NHLANHAGCQKT in terms of protein stability index is 0.667

Form: sequence = SPHSRAPPRFPP ; protein stability index = 0.726

Record summary for NECLSSKWLRIC : reported protein stability index = 0.185

Given item KRCHPVYVRGGG , the value recorded as its protein stability index is 0.568

Record RDYIAAKLVVCG . Reported protein stability index: 0.35

// sample FLSWTAYRPSST , its protein stability index was 0.682

====

# System: Saccharomyces cerevisiae
# Test: protein stability index of tFT-peptide fusion (C-terminal peptide) (PSI (0-1 scale)); higher = more stable (slower turnover)
# Condition: genetic background: wild type; temperature: 30 C
Measured endpoint: protein stability index
Lab note: record the figure alone, no unit after it.

Some sequences with recorded protein stability index:
{"Sequence data": "DFVLKQIARINL", "Target": "Saccharomyces cerevisiae", "protein stability index": 0.648}
{"Sequence data": "HVAETRLRDHGW", "Target": "Saccharomyces cerevisiae", "protein stability index": 0.714}
{"Sequence data": "SVGRPVACLFVH", "Target": "Saccharomyces cerevisiae", "protein stability index": 0.511}
{"Sequence data": "DVGGDGDCVVSS", "Target": "Saccharomyces cerevisiae", "protein stability index": 0.661}

protein stability index on Saccharomyces cerevisiae for WSVGYLSVALYR is 0.615

Field protein stability index (system: Saccharomyces cerevisiae) for entry LVVEYFLCGSIS = 0.532

# CPPPPPSLLLLC with Saccharomyces cerevisiae: protein stability index is 0.223

# SATIRDILHCRF with Saccharomyces cerevisiae: protein stability index is 0.844

With Saccharomyces cerevisiae as the test system, SSLPSTGPRPLH showed protein stability index of 0.582

Simply: GVGCGGGGSSCA , Saccharomyces cerevisiae, protein stability index = 0.703

Entry HIPPPPRPSAPP ; assay system Saccharomyces cerevisiae; protein stability index recorded at 0.69

Reported Saccharomyces cerevisiae protein stability index for item SVWLISPRPLSV was 0.564

====

# Test system: Saccharomyces cerevisiae
# Test: protein stability index of tFT-peptide fusion (C-terminal peptide) (PSI (0-1 scale)); higher = more stable (slower turnover)
# Condition: genetic background: wild type; temperature: 30 C
Measured endpoint: protein stability index

{"Sequence data": "LHHPPSPLRNPP", "Target": "Saccharomyces cerevisiae", "protein stability index": 0.687}
{"Sequence data": "TPFLLHPPSPDL", "Target": "Saccharomyces cerevisiae", "protein stability index": 0.607}
{"Sequence data": "PPRNPAALPTPI", "Target": "Saccharomyces cerevisiae", "protein stability index": 0.718}
{"Sequence data": "LPSPRPSPSRVP", "Target": "Saccharomyces cerevisiae", "protein stability index": 0.676}
{"Sequence data": "VRRVVDESKTRD", "Target": "Saccharomyces cerevisiae", "protein stability index": 0.659}

Summary: GVVVRSCLMGFT , Saccharomyces cerevisiae, protein stability index = 0.619

The recorded protein stability index with Saccharomyces cerevisiae for LRLAVVSHSCGA was 0.639

Noted protein stability index for EDRKRNKERRWT , tested on Saccharomyces cerevisiae: 0.426

Record RYQDLSDWRRIS ; system Saccharomyces cerevisiae; protein stability index = 0.159

The measured protein stability index that LPPPAAPPPALA showed for Saccharomyces cerevisiae is 0.691

Per the reported Saccharomyces cerevisiae data, PPTHPPPRLTPL has protein stability index of 0.707

# value of protein stability index, Saccharomyces cerevisiae, item GRESGNPGEPTC = 0.678

Form field, protein stability index with Saccharomyces cerevisiae, item FIQFGYVSSVIQ : 0.722

Simply: EGKRGKTGVRRI , Saccharomyces cerevisiae, protein stability index = 0.743

// sequence LVSWFWPFSFFA , assay Saccharomyces cerevisiae, protein stability index value: 0.661

Record LVFCSLLSLFFS has Saccharomyces cerevisiae protein stability index equal to 0.557

Known value: Saccharomyces cerevisiae protein stability index of the sequence KNIRKITHGIGN equals 0.623

protein stability index value, target or system Saccharomyces cerevisiae, for LRPPSCCPLEIQ : 0.705

// sequence QQLWQTHEHQAR , assay Saccharomyces cerevisiae, protein stability index value: 0.674

====

# System: Saccharomyces cerevisiae
# Test: protein stability index of tFT-peptide fusion (C-terminal peptide) (PSI (0-1 scale)); higher = more stable (slower turnover)
# Condition: genetic background: doa10 deletion; temperature: 30 C
Catalogue of sequences with associated protein stability index
Write the value as a bare number.

Please review the entries below; each comes with its answer.
{"Sequence data": "FFSFTVLVSYGF", "protein stability index": 0.186}
{"Sequence data": "HLKKKLKIRLIN", "protein stability index": 0.108}
{"Sequence data": "LWFFVGFAVYGG", "protein stability index": 0.306}
{"Sequence data": "PWFCYVQLVVPV", "protein stability index": 0.188}
{"Sequence data": "GGLFRWCVWRIV", "protein stability index": 0.102}

Value (protein stability index, Saccharomyces cerevisiae) for record FIICAASWFFLG = 0.109

# lookup: TLDCKFGRGGIG on Saccharomyces cerevisiae, protein stability index = 0.325

====

# System: Saccharomyces cerevisiae
# Test: protein stability index of tFT-peptide fusion (C-terminal peptide) (PSI (0-1 scale)); higher = more stable (slower turnover)
# Condition: genetic background: wild type; temperature: 30 C
Measured endpoint: protein stability index
Enter the number alone.

{"Sequence data": "FFSSSLMRLGCF", "protein stability index": 0.634}
{"Sequence data": "RCGVGGAVSFWW", "protein stability index": 0.72}
{"Sequence data": "AGSDLGLIEGIV", "protein stability index": 0.685}
{"Sequence data": "PPCGPPGPPIPP", "protein stability index": 0.592}
{"Sequence data": "PLFLLLPALSIP", "protein stability index": 0.595}
{"Sequence data": "RPIQPATLAYSP", "protein stability index": 0.682}
{"Sequence data": "STLVHSDESQLA", "protein stability index": 0.633}
{"Sequence data": "VDLYVRRVGVGG", "protein stability index": 0.631}

Recorded protein stability index (sequence LRSPPPPAQPFV ): 0.69

Value of protein stability index reported for the sequence PYHTITPKPLQR is 0.677

For this sequence ( PQPEAPSRPQLA ), measured protein stability index is 0.746

Lab note: measured protein stability index of KLKKKKISNVEN was 0.612

Item: FICAGPLGVCSC | protein stability index: 0.498

Kindly note the recorded protein stability index for QEMMRGVVGGNW , which is 0.715

The sequence listed as LPPSPLLLTSPP has a reported protein stability index of 0.687

Entry KKVKMIKEIRRG — recorded protein stability index = 0.745

protein stability index for KEERGINNKKGK is 0.691

====

# Tested on: Saccharomyces cerevisiae
# Test: protein stability index of tFT-peptide fusion (C-terminal peptide) (PSI (0-1 scale)); higher = more stable (slower turnover)
# Condition: genetic background: wild type; temperature: 30 C
Quick rule for you: protein stability index at 0.7 or higher means Fulfilled, lower means Not fulfilled.

{"Sequence data": "LKYCKRRHNTPS [GCR1 C-terminal 12 aa]", "Label": "Fulfilled"}
{"Sequence data": "VNHSFEFNDVLQ [IFH1 C-terminal 12 aa]", "Label": "Fulfilled"}
{"Sequence data": "IYSVIQCLFLHS [YMR141W-A C-terminal 12 aa]", "Label": "Not fulfilled"}
{"Sequence data": "FKSGQNMLKDEL [SCJ1 C-terminal 12 aa]", "Label": "Not fulfilled"}
{"Sequence data": "KDKKDKKKKHRD [RPA34 C-terminal 12 aa]", "Label": "Not fulfilled"}
{"Sequence data": "WEVVTGIRKLLI [PEX12 C-terminal 12 aa]", "Label": "Not fulfilled"}
{"Sequence data": "LSQWVSQMPFPM [LRO1 C-terminal 12 aa]", "Label": "Fulfilled"}
{"Sequence data": "AKPAYHWQTRYR [KIN3 C-terminal 12 aa]", "Label": "Not fulfilled"}

Asked: Could you tell me if the measured protein stability index of SLDVGKILDVTI [PSR1 C-terminal 12 aa] reaches 0.7 or more?
Given back: Not fulfilled

Asked: protein stability index >= 0.7 for VVTYTLKVDLKV [YLR152C C-terminal 12 aa] ?
Given back: Not fulfilled

Asked: Would you say FEGKPLYQMLKI [YAL047W-A C-terminal 12 aa] shows protein stability index at minimum 0.7?
Given back: Not fulfilled

Asked: Decide: protein stability index of FTNQKLAKLEVR [YMR141C C-terminal 12 aa] >= 0.7?
Given back: Not fulfilled

Asked: Entry ILDDTRQALGNT [PCL8 C-terminal 12 aa] : is its protein stability index no less than 0.7?
Given back: Fulfilled
